Target: cPLA2 (Homo sapiens, UniProt P47712)
Sequence (P47712 whole entry): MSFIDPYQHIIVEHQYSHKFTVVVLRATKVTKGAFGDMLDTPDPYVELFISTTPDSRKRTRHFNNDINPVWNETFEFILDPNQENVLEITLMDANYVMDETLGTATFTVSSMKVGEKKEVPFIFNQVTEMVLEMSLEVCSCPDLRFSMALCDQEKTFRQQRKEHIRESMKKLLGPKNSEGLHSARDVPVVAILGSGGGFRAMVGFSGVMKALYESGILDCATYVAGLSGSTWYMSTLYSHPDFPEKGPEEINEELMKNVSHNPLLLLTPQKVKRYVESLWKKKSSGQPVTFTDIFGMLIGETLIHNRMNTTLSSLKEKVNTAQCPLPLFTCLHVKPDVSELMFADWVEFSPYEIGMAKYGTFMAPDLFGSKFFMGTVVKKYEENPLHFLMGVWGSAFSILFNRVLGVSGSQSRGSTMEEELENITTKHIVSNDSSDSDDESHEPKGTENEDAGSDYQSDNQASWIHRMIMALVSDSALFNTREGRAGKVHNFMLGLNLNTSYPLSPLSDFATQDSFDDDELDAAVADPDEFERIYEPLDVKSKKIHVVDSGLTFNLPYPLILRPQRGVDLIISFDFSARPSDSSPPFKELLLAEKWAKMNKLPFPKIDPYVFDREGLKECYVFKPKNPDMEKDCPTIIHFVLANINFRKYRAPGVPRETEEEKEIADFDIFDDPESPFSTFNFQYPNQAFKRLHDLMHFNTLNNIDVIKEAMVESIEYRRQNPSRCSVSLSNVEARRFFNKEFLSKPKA
Assay: Coumarin Assay (cPLA2 inhibition)
Assay type: biochemical
Conditions: CONCENTRATION 50 micromolar
Rule: PERCENT INHIBITION @ of 20% or more gives 1.0; anything lower gives 0.0.

In [3]: df
Out[3]:
                                   compound                           target_desc  cat
0  Cc1c(C(=O)O)c2cc(OCc3ccccc3)ccc2n1Cc1ccccc1 [Example 111]  cPLA2 (Homo sapiens, UniProt P47712)  0.0
1  O=C(O)C(=O)c1cn(Cc2ccc(C(F)(F)F)cc2C(F)(F)F)c2ccc(OCc3ccccc3)cc12 [Example 70]  cPLA2 (Homo sapiens, UniProt P47712)  1.0
2  O=C(O)C(=O)c1cn(C(c2ccccc2)c2ccccc2)c2ccc(NC(=O)C3CCCC3)cc12 [Example 115]  cPLA2 (Homo sapiens, UniProt P47712)  1.0
3  Cc1c(C(=O)O)c2cc(OCc3ccccc3)ccc2n1Cc1ccc2ccccc2c1 [Example 109]  cPLA2 (Homo sapiens, UniProt P47712)  1.0
4  COc1cc(C(=O)O)ccc1Cc1cn(C(C)C)c2ccc(NC(=O)OC3CCCC3)cc12 [Example 7]  cPLA2 (Homo sapiens, UniProt P47712)  0.0

----------
inhibition at 6.25 µM for assorted molecules
Molecular target: cPLA2 (Homo sapiens)
Experiment: Coumarin Assay (cPLA2 inhibition)
Format: biochemical
Settings: CONCENTRATION 6.25 micromolar; read-out: PERCENT INHIBITION @
readout-name: inhibition at 6.25 µM

In [3]: df
Out[3]:
                                   molecule  observed_measurement
0  COc1cc(-c2nnn[nH]2)ccc1Cc1cn(C(c2ccccc2)c2ccccc2)c2ccc(NC(=O)OC3CCCC3)cc12                   66%
1  COc1cc(C(=O)O)ccc1Cc1cn(C(c2ccccc2)c2ccccc2)c2cc3c(cc12)OCO3                   98%
2  COc1cc(C(=O)O)ccc1Cc1cn(C(c2ccccc2)c2ccccc2)c2ccc(Br)cc12                   81%
3  COc1cc(C(=O)O)ccc1Cc1cn(C(c2ccccc2)c2ccccc2)c2ccc(NC(=O)OC3CCCC3)cc12                   51%
4  COc1cc(C(=O)NS(=O)(=O)c2ccccc2C)ccc1Cc1cn(C(c2ccccc2)c2ccccc2)c2ccc(NC(=O)OC3CCCC3)cc12                   52%
5  O=C(O)c1ccc(CN2C(=O)S/C(=C/c3cn(CCCOc4cccc(Cc5ccccc5)c4)c4ccccc34)C2=O)cc1 [Example 82B]                   61%
6  Cc1c(C(=O)Nc2cc(C(=O)O)cc(C(=O)O)c2)c2cc(OCc3ccccc3)ccc2n1Cc1ccc(C(F)(F)F)cc1C(F)(F)F                   67%
7  COc1cc(C(=O)O)ccc1Cc1cn(C(c2ccccc2)c2ccccc2)c2ccc(C)cc12                   90%

----------
Target: cPLA2 (Homo sapiens, UniProt P47712)
Assay: Coumarin Assay (cPLA2 inhibition)
Type: biochemical
Settings: CONCENTRATION 12.5 micromolar; read-out: PERCENT INHIBITION @
inhibition at 12.5 µM for assorted compounds
readout-name: inhibition at 12.5 µM (%)

                              line_notation  observed_measurement
0  O=C(Nc1cc(C(=O)O)cc(C(=O)O)c1)C(=O)c1cn(Cc2ccc(C(F)(F)F)cc2C(F)(F)F)c2ccc(OCc3ccccc3)cc12                    50
1  O=C(Nc1cccc(C(=O)O)c1)C(=O)c1cn(Cc2ccc(Cc3ccccc3)cc2)c2ccccc12                    90
2  O=C(Nc1cccc(C(=O)O)c1)C(=O)c1cn(C(c2ccccc2)c2ccccc2)c2ccccc12                    54
3  COc1cc(C(=O)O)ccc1Cc1cn(C(c2ccccc2)c2ccccc2)c2ccc(NC(=O)C3CCCC3)cc12                    52
4  O=C(Nc1cccc(C(=O)O)c1)C(=O)c1cn(Cc2ccc(COc3cc(C(F)(F)F)cc(C(F)(F)F)c3)cc2)c2ccccc12                    50
5  O=C(Nc1cccc(C(=O)O)c1)C(=O)c1cn(CCCOc2ccc(Cc3ccccc3)cc2)c2ccccc12                    86
6  O=C(O)C(=O)c1cn(Cc2ccc(Cc3ccccc3)cc2)c2ccc(OCc3ccccc3)cc12                    50
